Molecular target: Heparanase (Homo sapiens, UniProt Q9Y251)
Sequence (Q9Y251 whole entry): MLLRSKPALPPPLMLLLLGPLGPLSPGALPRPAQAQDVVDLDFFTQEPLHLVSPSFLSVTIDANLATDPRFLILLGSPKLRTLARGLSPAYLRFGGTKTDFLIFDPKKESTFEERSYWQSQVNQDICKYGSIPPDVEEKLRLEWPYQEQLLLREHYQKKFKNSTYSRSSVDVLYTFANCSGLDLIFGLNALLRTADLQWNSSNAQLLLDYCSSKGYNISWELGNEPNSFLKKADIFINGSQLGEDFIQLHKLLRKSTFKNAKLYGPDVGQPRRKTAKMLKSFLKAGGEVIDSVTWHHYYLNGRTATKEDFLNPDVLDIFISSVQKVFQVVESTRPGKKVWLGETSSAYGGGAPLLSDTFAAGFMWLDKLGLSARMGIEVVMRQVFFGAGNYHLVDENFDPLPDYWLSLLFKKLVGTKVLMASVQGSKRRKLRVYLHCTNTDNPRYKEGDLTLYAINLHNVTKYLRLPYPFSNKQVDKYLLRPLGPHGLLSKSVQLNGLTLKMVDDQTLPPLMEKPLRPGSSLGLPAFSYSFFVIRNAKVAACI
Assay: Compound was tested for inhibitory activity against heparanase
Recorded endpoint: pIC50
Just the number, please; pIC50 means minus log10 of the concentration in mol/L.

Tell me pIC50 reported for O=C(O)c1ccccc1C(=O)c1ccc(Sc2ccccc2)c([N+](=O)[O-])c1
3.52

Ref: ChEMBL document CHEMBL1146729
